Target: rat TIMP-1 (rat, UniProt P30120 24-217)
Sequence (P30120 24-217 limits assumed): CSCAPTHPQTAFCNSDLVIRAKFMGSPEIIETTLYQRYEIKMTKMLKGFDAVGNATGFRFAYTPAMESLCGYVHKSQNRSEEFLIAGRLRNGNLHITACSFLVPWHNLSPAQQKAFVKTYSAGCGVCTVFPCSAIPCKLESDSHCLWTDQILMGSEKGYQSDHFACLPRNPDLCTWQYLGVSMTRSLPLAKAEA
Test: cell-based or functional assay
Item-by-item account of IC50 in rat protease assay

• MS-BW-59 (Fab, V domains shown, Fab, FLAG + Strep-tag II; not tied by name) VH: QVQLVQSGAEVKKPGESLKISCKGSGYSFTSYWIGWVRQMPGKGLEWMGIIYPGDSDTRYSPSFQGQVTISADKSISTAYLQWSSLKASDTAMYYCARLRVHDYAMYFDLWGQGTLVTVSS VL: DIALTQPASVSGSPGQSITISCTGTSSDVGGYNYVSWYQQHPGKAPKLMIYDVSNRPSGVSNRFSGSKSGNTASLTISGLQAEDEADYYCQSYDIMPERVFGGGTKLTVLG = 30 nM
• MS-BW-22 (Fab, V domains shown, Fab, FLAG + Strep-tag II; not tied by name) VH: QVQLVQSGAEVKKPGESLKISCKGSGYSFTSYWIGWVRQMPGKGLEWMGIIYPGDSDTRYSPSFQGQVTISADKSISTAYLQWSSLKASDTAMYYCARFRAYGDDFYFDVWGQGTLVTVSS VL: DIALTQPASVSGSPGQSITISCTGTSSDVGGYNYVSWYQQHPGKAPKLMIYDVSNRPSGVSNRFSGSKSGNTASLTISGLQAEDEADYYCQSWDNLKMPVVFGGGTKLTVLG = 65 nM
• MS-BW-57 (Fab, V domains shown, Fab, FLAG + Strep-tag II; not tied by name) VH: QVQLVQSGAEVKKPGESLKISCKGSGYSFTSYWIGWVRQMPGKGLEWMGIIYPGDSDTRYSPSFQGQVTISADKSISTAYLQWSSLKASDTAMYYCARLYPEDLIYFDYWGQGTLVTVSS VL: DIALTQPASVSGSPGQSITISCTGTSSDVGGYNYVSWYQQHPGKAPKLMIYDVSNRPSGVSNRFSGSKSGNTASLTISGLQAEDEADYYCQSWDVQTDKVFGGGTKLTVLG = ~60 nM
• MS-BW-37 (Fab, V domains shown, Fab, FLAG + Strep-tag II; not tied by name) VH: QVQLVQSGAEVKKPGESLKISCKGSGYSFTSYWIGWVRQMPGKGLEWMGIIYPGDSDTRYSPSFQGQVTISADKSISTAYLQWSSLKASDTAMYYCARLFAGLELYFDYWGQGTLVTVSS VL: DIALTQPASVSGSPGQSITISCTGTSSDVGGYNYVSWYQQHPGKAPKLMIYDVSNRPSGVSNRFSGSKSGNTASLTISGLQAEDEADYYCQSYDLRNRVFGGGTKLTVLG = > 100 nM
• MS-BW-10 (Fab, V domains shown, Fab, FLAG + Strep-tag II; not tied by name) VH: QVQLVQSGAEVKKPGASVKVSCKASGYTFTSYYMHWVRQAPGQGLEWMGWINPNSGGTNYAQKFQGRVTMTRDTSISTAYMELSSLRSEDTAVYYCARLVGIVGYKPDELLYFDVWGQGTLVTVSS VL: DIELTQPPSVSVAPGQTARISCSGDALGDKYASWYQQKPGQAPVLVIYDDSDRPSGIPERFSGSNSGNTATLTISGTQAEDEADYYCQSYDYSLLVFGGGTKLTVLG = ~30 nM
• MS-BW-32 (Fab, V domains shown, Fab, FLAG + Strep-tag II; not tied by name) VH: QVQLVQSGAEVKKPGSSVKVSCKASGGTFSSYAISWVRQAPGQGLEWMGGIIPIFGTANYAQKFQGRVTITADESTSTAYMELSSLRSEDTAVYYCARTKYVGSEDVWGQGTLVTVSS VL: DIALTQPASVSGSPGQSITISCTGTSSDVGGYNYVSWYQQHPGKAPKLMIYDVSNRPSGVSNRFSGSKSGNTASLTISGLQAEDEADYYCQSYDFSHYFFVFGGGTKLTVLG = > 100 nM
• MS-BW-29 (Fab, V domains shown, Fab, FLAG + Strep-tag II; not tied by name) VH: QVQLVQSGAEVKKPGESLKISCKGSGYSFTSYWIGWVRQMPGKGLEWMGIIYPGDSDTRYSPSFQGQVTISADKSISTAYLQWSSLKASDTAMYYCARHDFDGSIFMDFWGQGTLVTVSS VL: DIALTQPASVSGSPGQSITISCTGTSSDVGGYNYVSWYQQHPGKAPKLMIYDVSNRPSGVSNRFSGSKSGNTASLTISGLQAEDEADYYCQSYDVTPRVFGGGTKLTVLG = > 100 nM
• MS-BW-19 (Fab, V domains shown, Fab, FLAG + Strep-tag II; not tied by name) VH: QVQLVQSGAEVKKPGESLKISCKGSGYSFTSYWIGWVRQMPGKGLEWMGIIYPGDSDTRYSPSFQGQVTISADKSISTAYLQWSSLKASDTAMYYCARYVTYGYDDYHFDYWGQGTLVTVSS VL: DIALTQPASVSGSPGQSITISCTGTSSDVGGYNYVSWYQQHPGKAPKLMIYDVSNRPSGVSNRFSGSKSGNTASLTISGLQAEDEADYYCQSWDINHAIVFGGGTKLTVLG = > 300 nM
• MS-BW-31 (Fab, V domains shown, Fab, FLAG + Strep-tag II; not tied by name) VH: QVQLVQSGAEVKKPGESLKISCKGSGYSFTSYWIGWVRQMPGKGLEWMGIIYPGDSDTRYSPSFQGQVTISADKSISTAYLQWSSLKASDTAMYYCARLYADADIYFDYWGQGTLVTVSS VL: DIALTQPASVSGSPGQSITISCTGTSSDVGGYNYVSWYQQHPGKAPKLMIYDVSNRPSGVSNRFSGSKSGNTASLTISGLQAEDEADYYCQSYDLSPRVFGGGTKLTVLG = > 100 nM

For this binder ( MS-BW-36 (Fab, V domains shown, Fab, FLAG + Strep-tag II; not tied by name) VH: QVQLVQSGAEVKKPGESLKISCKGSGYSFTSYWIGWVRQMPGKGLEWMGIIYPGDSDTRYSPSFQGQVTISADKSISTAYLQWSSLKASDTAMYYCARYRYPHMFDFWGQGTLVTVSS VL: DIELTQPPSVSVAPGQTARISCSGDALGDKYASWYQQKPGQAPVLVIYDDSDRPSGIPERFSGSNSGNTATLTISGTQAEDEADYYCQSYDLRYSHVFGGGTKLTVLG ), measured IC50 in rat protease assay is ~75 nM
